Values were extracted from ChEMBL document CHEMBL5058577.

Tested on: Fibroblast
protocol.summary: Multiplex assay against human fibroblast
Assay type: toxicity, cell-based
cond: 12 h, 10 µM, compound concentration 10 uM, replicate 1
Give measured Population Fragmented Nuclei (%) for each item. Keep answers brief.
Reply numerically in %, unit not repeated.

So what does the record say about Population Fragmented Nuclei (%) for COc1cc2nc(N3CCN(C(=O)c4ccco4)CC3)nc(N)c2cc1OC.Cl [PRAZOSIN HYDROCHLORIDE] ? 23

So what does the record say about Population Fragmented Nuclei (%) for Cc1sc2c(c1C)C(c1ccc(Cl)cc1)=N[C@H](CC(=O)OC(C)(C)C)c1nnc(C)n1-2 ? 19

So what does the record say about Population Fragmented Nuclei (%) for O=C(O)CCC/C=C\CC1C(O)CC(O)C1/C=C/C(O)COc1cccc(Cl)c1 (stereo not drawn) ? 23

So what does the record say about Population Fragmented Nuclei (%) for COc1ccc2[nH]c(I)c(CCNC(C)=O)c2c1 ? 14

So what does the record say about Population Fragmented Nuclei (%) for CCCCC[C@H](O)/C=C/[C@H]1[C@H](O)CC(=O)[C@@H]1CCCCCCC(=O)O ? 7

So what does the record say about Population Fragmented Nuclei (%) for CN1C[C@H](C(=O)N[C@]2(C)O[C@@]3(O)[C@@H]4CCCN4C(=O)[C@H](Cc4ccccc4)N3C2=O)C[C@@H]2c3cccc4[nH]cc(c34)C[C@H]21.CS(=O)(=O)O [DIHYDROERGOTAMINE MESYLATE] ? 27

So what does the record say about Population Fragmented Nuclei (%) for Cn1cc(C(=O)OCC2CCN(CCNS(C)(=O)=O)CC2)c2ccccc21 ? 29

So what does the record say about Population Fragmented Nuclei (%) for COCCn1c(C)c(C)s/c1=N\C(=O)C1C(C)(C)C1(C)C ? 19

====

System: U2OS
protocol.summary: Multiplex assay against U2OS
Type: toxicity, cell-based
cond: human, 48 h, 10 µM, compound concentration 10 uM, replicate 2
Non-standard residues stand in square brackets, D forms with d. Residues, ends and D or L forms follow the SMILES beside them.
quantity: Population Tubulin-Different-Phenotype (%)
Reply numerically in %, unit not repeated.

So what does the record say about Population Tubulin-Different-Phenotype (%) for COCCCN1CCC(NC(=O)c2cc(Cl)c(N)c3c2OCC3)CC1 [PRUCALOPRIDE] ? 1

So what does the record say about Population Tubulin-Different-Phenotype (%) for O=C(Nc1cc(-c2ccccc2)nn1-c1ccccc1F)c1ccc([N+](=O)[O-])cc1 ? 8

So what does the record say about Population Tubulin-Different-Phenotype (%) for OCCCNc1cc(-c2ccnc(Nc3cccc(Cl)c3)n2)ccn1 ? 65

So what does the record say about Population Tubulin-Different-Phenotype (%) for CCC(=O)OCC(=O)[C@@]1(OC(=O)CC)[C@@H](C)C[C@H]2[C@@H]3CCC4=CC(=O)C=C[C@]4(C)[C@@]3(Cl)[C@@H](O)C[C@@]21C [BECLOMETHASONE DIPROPIONATE] ? 10

So what does the record say about Population Tubulin-Different-Phenotype (%) for CN1C[C@H](C(=O)N[C@]2(C)O[C@@]3(O)[C@@H]4CCCN4C(=O)[C@H](Cc4ccccc4)N3C2=O)C[C@@H]2c3cccc4[nH]cc(c34)C[C@H]21.CS(=O)(=O)O [DIHYDROERGOTAMINE MESYLATE] ? 2

So what does the record say about Population Tubulin-Different-Phenotype (%) for CN(C)C/C=C/C(=O)Nc1ccc(C(=O)N2CCCC(Nc3ncc(Cl)c(-c4c[nH]c5ccccc45)n3)C2)cc1 (configuration not stated) ? 23

So what does the record say about Population Tubulin-Different-Phenotype (%) for C[C@H](NC(=O)CNC(=O)c1cccc(Cl)c1)c1ccccc1 ? 1

So what does the record say about Population Tubulin-Different-Phenotype (%) for COc1ccc2c(c1OCc1ccccc1)C[C@@H](C(=O)O)N(C(=O)C(c1ccccc1)c1ccccc1)C2 [OLODANRIGAN] ? 5

So what does the record say about Population Tubulin-Different-Phenotype (%) for Cc1ccc(OCC(O)C(C)NC(C)C)c2c1CCC2.Cl (configuration not stated) ? 3

So what does the record say about Population Tubulin-Different-Phenotype (%) for COc1cc(OC2CCN(C(C)=O)CC2)ccc1C(=O)N1CCC(N2C(=O)OCc3ccccc32)CC1 ? 8

So what does the record say about Population Tubulin-Different-Phenotype (%) for Cc1cc(=O)n(C)c2cc(N3C(=O)CC[C@H](NS(=O)(=O)CC(C)C)[C@H]3c3ccc(Cl)cc3)ccc12 ? 23

So what does the record say about Population Tubulin-Different-Phenotype (%) for C=CCN1C[C@H](C(=O)N(CCCN(C)C)C(=O)NCC)C[C@@H]2c3cccc4[nH]cc(c34)C[C@H]21 [CABERGOLINE] ? 5

So what does the record say about Population Tubulin-Different-Phenotype (%) for Cc1cc(NC(=O)NCCN2CCC(O)(Cc3ccccc3)CC2)c2ccccc2n1 [PALOSURAN] ? 1

So what does the record say about Population Tubulin-Different-Phenotype (%) for Nc1nc(CC(=O)Nc2ccc(CCNC[C@H](O)c3ccccc3)cc2)cs1 [MIRABEGRON] ? 1

So what does the record say about Population Tubulin-Different-Phenotype (%) for COC(c1ccccc1)(c1ccccc1)[C@H](Oc1nc(C)cc(C)n1)C(=O)O [AMBRISENTAN] ? 2

So what does the record say about Population Tubulin-Different-Phenotype (%) for Cc1c(Cc2ccc3ccccc3n2)c2cc(F)ccc2n1CC(=O)O [TIMAPIPRANT] ? 3

So what does the record say about Population Tubulin-Different-Phenotype (%) for CN1CCN(c2ccc(Nc3c4ccccc4nc4ccccc34)cc2)CC1.Cl.Cl.O ? 100

So what does the record say about Population Tubulin-Different-Phenotype (%) for CCCCCCNC(=O)Nc1ccc(S(=O)(=O)Nc2ccc(CCNC[C@H](O)COc3ccc(O)cc3)cc2)cc1 [L-755507] ? 6

So what does the record say about Population Tubulin-Different-Phenotype (%) for COc1cc2nc(N3CCN(C(=O)COc4c(OC)cccc4C(C)C)CC3)nc(N)c2cc1OC.Cl.Cl ? 24

So what does the record say about Population Tubulin-Different-Phenotype (%) for CC(C)C[C@@H]1NC(=O)[C@@H](C(C)C)NC(=O)[C@@H]2CCCN2C(=O)[C@@H](CC(=O)O)NC(=O)[C@@H](Cc2c[nH]c3ccccc23)NC1=O [BQ-123] (cyclo(L[dW][dD]P[dV])) ? 2

So what does the record say about Population Tubulin-Different-Phenotype (%) for CN1CCN2c3ccccc3Cc3ccccc3C2C1.Cl (configuration not stated) [MIANSERIN HYDROCHLORIDE] ? 2

So what does the record say about Population Tubulin-Different-Phenotype (%) for Cc1cc(O)c(-c2ccc([C@@H](C)CN(C)C)cc2)c2c1[nH]c(=O)c1sccc12 ? 64

So what does the record say about Population Tubulin-Different-Phenotype (%) for Cn1cc(C(=O)OCC2CCN(CCNS(C)(=O)=O)CC2)c2ccccc21 ? 5

So what does the record say about Population Tubulin-Different-Phenotype (%) for CN1CCC(C(=O)c2cccc(NC(=O)c3c(F)cc(F)cc3F)n2)CC1 ? 8

So what does the record say about Population Tubulin-Different-Phenotype (%) for Cc1sc2c(c1C)C(c1ccc(Cl)cc1)=N[C@H](CC(=O)OC(C)(C)C)c1nnc(C)n1-2 ? 3

So what does the record say about Population Tubulin-Different-Phenotype (%) for CC(C)(O)C(=O)N1CCN(c2ccc(C(F)(F)F)c(C3=C(c4c[nH]c5ccccc45)C(=O)NC3=O)c2)CC1 ? 17

So what does the record say about Population Tubulin-Different-Phenotype (%) for COc1cc(Nc2ncc3c(n2)-c2ccc(Cl)cc2C(c2c(F)cccc2OC)=NC3)ccc1C(=O)O [ALISERTIB] ? 2

So what does the record say about Population Tubulin-Different-Phenotype (%) for CCCCC[C@H](O)/C=C/[C@H]1[C@H](O)CC(=O)[C@@H]1CCCCCCC(=O)O [ALPROSTADIL] ? 4

So what does the record say about Population Tubulin-Different-Phenotype (%) for Nc1nc(-c2ccco2)c2cnn(Cc3ccccc3F)c2n1 ? 6

So what does the record say about Population Tubulin-Different-Phenotype (%) for CC(C)C[C@H](CO)Nc1nc(S[C@@H](C)c2ccccc2)nc2nc(N)sc12 [AZD-8797] ? 4

So what does the record say about Population Tubulin-Different-Phenotype (%) for COc1cc(C(=O)N2CC[C@@H](O)[C@@H](N)C2)cc2nc(-c3cc4ccccc4n3CC3CC3)n(C)c12.Cl ? 75

So what does the record say about Population Tubulin-Different-Phenotype (%) for O=C(NCCNCC(O)COc1ccc(O)cc1)N1CCOCC1.O=C(NCCNCC(O)COc1ccc(O)cc1)N1CCOCC1.O=C(O)/C=C/C(=O)O (configuration not stated) [XAMOTEROL FUMARATE] ? 6

====

Give measured Population Apoptotic (%) for each item. Keep answers brief.
Test system: HEK-293T
protocol.summary: Multiplex assay against HEK293T
Format: toxicity, cell-based
cond: human, 48 h, 1 µM, compound concentration 1 uM, replicate 1
Reply numerically in %, unit not repeated.

Find the measured Population Apoptotic (%): item O=C(NCCNCC(O)COc1ccc(O)cc1)N1CCOCC1.O=C(NCCNCC(O)COc1ccc(O)cc1)N1CCOCC1.O=C(O)/C=C/C(=O)O (stereo not drawn) [XAMOTEROL FUMARATE] , target or system HEK-293T. 21

Find the measured Population Apoptotic (%): item COc1cc2nc(N3CCN(C(=O)COc4c(OC)cccc4C(C)C)CC3)nc(N)c2cc1OC.Cl.Cl , target or system HEK-293T. 28

Find the measured Population Apoptotic (%): item COc1cc(Nc2ncc3c(n2)-c2ccc(Cl)cc2C(c2c(F)cccc2OC)=NC3)ccc1C(=O)O , target or system HEK-293T. 31

Find the measured Population Apoptotic (%): item S=C(NCCCc1c[nH]cn1)NCCCN(Cc1ccc(Cl)c(Cl)c1)c1ccc(Br)cn1 , target or system HEK-293T. 47

Find the measured Population Apoptotic (%): item Cl.Cl.OCCOCCN1CCN(C(c2ccccc2)c2ccc(Cl)cc2)CC1 (stereo not drawn) [HYDROXYZINE HYDROCHLORIDE] , target or system HEK-293T. 23

Find the measured Population Apoptotic (%): item CN1CCN2c3ccccc3Cc3ccccc3C2C1.Cl (stereo not drawn) [MIANSERIN HYDROCHLORIDE] , target or system HEK-293T. 13

Find the measured Population Apoptotic (%): item COC(c1ccccc1)(c1ccccc1)[C@H](Oc1nc(C)cc(C)n1)C(=O)O , target or system HEK-293T. 27

Find the measured Population Apoptotic (%): item CC(C)(O)C(=O)N1CCN(c2ccc(C(F)(F)F)c(C3=C(c4c[nH]c5ccccc45)C(=O)NC3=O)c2)CC1 , target or system HEK-293T. 25
